Tested on: NCI-H23 lung
protocolText: NCI tumour cell line growth inhibition, 48 h
Given measured TGI, output MET if it is greater than or equal to 20 µM and NOT MET if not.

# molecule, class
data = [
    ("O=C(Nc1ccccc1)c1cc2c(cc1Cl)SC(NNCCO)=NS2(=O)=O", "MET"),
    ("Cc1ccccc1C(=O)NC(O)(C(F)(F)F)C(F)(F)F", "MET"),
    ("Cc1nn2c(=O)n(-c3cccc(-n4nnc5c(-c6ccccc6)c(C)nn5c4=O)c3C)nnc2c1-c1ccccc1", "MET"),
    ("O=CNNC(=O)CSc1nc2ccc(I)cc2c(=O)n1Cc1ccccc1", "MET"),
    ("NS(=O)(=O)c1ccc(N=Nc2ccc(O)c(O)c2)cc1", "MET"),
    ("Cc1ccc(S(=O)(=O)Nn2c(C)cc3ccc(S(=O)(=O)Nc4ccccc4[N+](=O)[O-])cc3c2=O)cc1", "MET"),
    ("Nc1ncnc2c1ccn2CC=C(CO)CO", "MET"),
    ("CCOC(=O)c1c(SC)nc(-c2ccc(Cl)cc2)sc1=N", "MET"),
    ("[O-]/N=N\\c1on[n+](CCc2ccccc2)c1Cc1c(/N=N/[O-])on[n+]1CCc1ccccc1", "MET"),
    ("CC(=O)C1=C(C)N(c2ccc(C)cc2)C2(O)C=CC(=O)C3=C(O)c4ccccc4C(=O)C312 (stereo not given)", "MET"),
    ("O=[N+]([O-])c1ccc(Oc2cccc(C(F)(F)F)c2)c([N+](=O)[O-])c1", "NOT MET"),
    ("Cc1no[n+]([O-])c1/C=N/NS(=O)(=O)c1ccccc1", "MET"),
    ("O=C1c2cccc3cccc(c23)C(=O)N1CC#Cc1ccc2c3c(cccc13)C(=O)N(CCN1CCNCC1)C2=O", "NOT MET"),
    ("Cc1ccc(-n2nnc3c(sc4ccccc43)c2=O)cc1", "MET"),
    ("Cc1cc(C(=O)N2CCN(C)CC2)c2c(=O)n(-c3ccccc3)c(=O)n(CC(O)CN3CCN(c4ncccn4)CC3)c2n1 (stereo not given)", "MET"),
    ("COC(=O)c1c2c(c(C)[n+]([O-])c1C)C(=O)C=C(NCc1ccc(Br)cc1)C2=O", "NOT MET"),
    ("CCOP(=O)(CCN1CCN(CCCCCOc2cc3c(cc2OC)C(=O)N2CCC[C@H]2C=N3)CC1)OCC", "MET"),
    ("OCCSCc1cc(Cl)cc(Cl)c1O", "MET"),
]

###

Test system: KM12 colon
protocolText: NCI tumour cell line growth inhibition, 48 h

# molecule, TGI
measured = [
    ("COc1ccc2oc(-c3cc4cc(OC)ccc4o3)cc2c1", "> 100 µM"),
    ("NC(CCC(=O)NC(CSC(=O)N(O)c1ccc(Cl)cc1)C(=O)NCC(=O)O)C(=O)O (configuration not stated)", "> 0.5 µM"),
    ("Cc1ccc(-n2nnc3c(sc4ccccc43)c2=O)cc1", "> 100 µM"),
    ("Cc1ccccc1C(=O)NC(O)(C(F)(F)F)C(F)(F)F", "> 100 µM"),
    ("Nc1ncnc2c1ccn2CC=C(CO)CO", "> 100 µM"),
    ("Cc1cc(O)c2cc3c(O)c(O)ccc3cc2c1", "2.32 µM"),
    ("CCc1cccc(C(C)C)c1NC1=C([n+]2ccc(C)cc2)C(=O)c2ccccc2C1=O", "> 43.4 µM"),
    ("Nc1nc(Cl)cc(NCC2(CO)CC(c3ccccc3)C2)n1 (configuration not stated)", "> 100 µM"),
    ("Cc1ccc(S(=O)(=O)N/N=C2/C3C(CC2(C)C)C2(C)CCCC3(C)C2O)cc1 (configuration not stated)", "35.1 µM"),
    ("CCCCCCCCn1ccc2cc(NC(=O)Cn3cc(CN4CCC(C)CC4)nn3)ccc21", "3.39 µM"),
    ("Cc1ccc(C2NC(=S)N3C(c4ccc(C)cc4)NC(=S)N23)cc1 (configuration not stated)", "17.4 µM"),
    ("CC1(C)CC(=O)C(CC2C(=O)c3ccccc3C2=O)C(=O)C1C(=O)C(=O)Nc1cccc2ccc(O)cc12 (configuration not stated)", "> 100 µM"),
    ("C=C1C(=O)O[C@H]2[C@H]1CC/C(COC(=O)c1cccc3ccccc13)=C\\CC[C@@]1(C)O[C@@H]21", "4.99 µM"),
    ("O=S(=O)(c1ccccc1)n1cnc(CCc2ccccc2)n1", "> 100 µM"),
    ("CSc1ncc2c(C#N)c3ccccn3c(=O)c2n1", "> 100 µM"),
    ("Nc1nc(NNc2ccccc2F)cc(=O)[nH]1", "> 100 µM"),
    ("O=C(/C=C/c1cc(F)ccc1F)OCCc1ccccc1", "> 100 µM"),
    ("COc1ccc(N2C(=O)C(C#N)=C(SC)C(C#N)C2=O)cc1 (configuration not stated)", "> 100 µM"),
    ("O=[N+]([O-])c1ccc(Oc2cccc(C(F)(F)F)c2)c([N+](=O)[O-])c1", "6.73 µM"),
    ("O=CNNC(=O)CSc1nc2ccc(I)cc2c(=O)n1Cc1ccccc1", "> 100 µM"),
    ("COC(=O)[C@H]1CC(=O)C=C2CCCC21 (some centres not stated)", "> 100 µM"),
    ("O=C1CSc2sc(=S)sc2S1", "> 100 µM"),
    ("Cc1cc(O)c2c(c1)C(=O)C=C(Br)C2=O", "> 55.8 µM"),
    ("CC1C(O)[C@@]2(OC[C@@]34C(=O)CC5(O)[C@H](CCC6Cc7nc8c(nc7C[C@]65C)CC5CC[C@@H]6C7=C[C@H]9O[C@@]%10(O[C@@](C)(CO)C[C@@H]%10O)C(C)[C@@]9(O)[C@]7(C)[C@@H](O)CC6[C@]5(C)C8)C3=CC[C@H]4C2C)OC1(C)C (some centres not stated)", "> 3.55 µM"),
    ("Cc1cc(NS(=O)(=O)c2ccc(NC(=O)COc3ccc(-c4cc5ccccc5[nH]4)cc3)cc2)no1", "3.24 µM"),
    ("CC(=O)c1c2c(cc3c1CC1(C3)Cc3ccc4c(c3C1=O)CCC4)CCC2 (configuration not stated)", "> 100 µM"),
    ("CC(=O)C(CN(C)Cc1ccccc1)C(c1ccccc1)c1c(O)c2ccccc2oc1=O (configuration not stated)", "> 100 µM"),
    ("Cc1ccc(NC(C(=O)c2ccccc2)c2ccccc2)cc1 (configuration not stated)", "13.4 µM"),
    ("NC(Cn1ccc(=O)c(O)c1)C(=O)O (configuration not stated)", "> 100 µM"),
    ("N#Cc1nc(-c2ccccc2O)oc1N", "> 100 µM"),
    ("O=C1c2cccc3cccc(c23)C(=O)N1CC#Cc1ccc2c3c(cccc13)C(=O)N(CCN1CCNCC1)C2=O", "4.6 µM"),
    ("N=c1oc2ccc([N+](=O)[O-])cc2cc1C(=O)Nc1ccccn1", "> 100 µM"),
    ("CNC(=O)C1CCC(=O)N1CN(C(C)=O)c1ccccc1 (configuration not stated)", "> 100 µM"),
    ("COC(=O)C(=O)c1cc2ccccc2n1S(=O)(=O)c1ccccc1", "> 100 µM"),
    ("NC(=O)c1ccccc1NC(=O)C(=O)Nc1n[nH]c(N)n1", "> 100 µM"),
    ("O=C(Nc1ccccc1)c1cc2c(cc1Cl)SC(NNCCO)=NS2(=O)=O", "> 100 µM"),
    ("C=C(C)C1Cc2c(cc(OC)c3c(=O)c4ccccc4n(C)c23)O1 (configuration not stated)", "> 100 µM"),
    ("O=C1NC(=O)C(N2CCc3ccccc32)=C1c1ccc(Cl)cc1", "> 25 µM"),
    ("CC(C)[Si](Oc1cc2c3c(ccc2c(O)c1[C@@H](C)CO[Si](C)(C)C(C)(C)C)C(C)(C)CCC3)(C(C)C)C(C)C", "> 100 µM"),
    ("c1ccc2c(c1)ccc1nc3ccccn3c12", "> 100 µM"),
    ("O=C1/C(=C/c2ccc3c(c2)OCO3)Sc2scc(-c3ccc(O)c(O)c3)[n+]21", "13.1 µM"),
    ("CCOC(=O)c1c(C(F)(F)F)n([O-])c2ccc(Cl)cc2[n+]1=O", "3.8 µM"),
]
